Test system: Human keratinocytes (NHEK cell), IL-8 secretion
experiment-notes: IL-8 secretion by NHEK cells (ELISA)
Assay type: cell-based
condition-parameters: FIG. 8, 50 μg/ml, 16–20 hours, deletion variants of b7
Ends that are not written are not given here. * marks the point of attachment. Biotin = O=C1N[C@H]2[C@H](CS[C@H]2CCCCC(=O)*)N1

| substance | secretion amount of IL-8 |
| --- | --- |
| IEQSCDQDE (Biotin-IEQSCDQDE) [b7ΔN1] | slightly decreased |
| QSCDQDE (Biotin-QSCDQDE) [b7ΔN3] | slightly decreased |

====

Tested on: Human keratinocytes (NHEK cell), IL-8 secretion
experiment-notes: IL-8 secretion by NHEK cells (ELISA)
Assay type: cell-based
condition-parameters: FIG. 8, 50 μg/ml, 16–20 hours, deletion variants of b7
Ends that are not written are not given here. * marks the point of attachment. Biotin = O=C1N[C@H]2[C@H](CS[C@H]2CCCCC(=O)*)N1
assay-endpoint: secretion amount of IL-8

| substance | assay-endpoint | recorded-result |
| --- | --- | --- |
| SIEQSC (Biotin-SIEQSC; also: Cys sulfhydryl blocked (group not given here)) [b7ΔC4] | secretion amount of IL-8 | maintained |
| SIEQSCD (Biotin-SIEQSCD; also: Cys sulfhydryl blocked (group not given here)) [b7ΔC3] | secretion amount of IL-8 | maintained |
| SIEQSCDQ (Biotin-SIEQSCDQ; also: Cys sulfhydryl blocked (group not given here)) [b7ΔC2] | secretion amount of IL-8 | maintained |
